Provenance of the data: patent US20080312435A1

Biological target: human CB1 receptor (Homo sapiens)
Sequence (P21554 whole entry): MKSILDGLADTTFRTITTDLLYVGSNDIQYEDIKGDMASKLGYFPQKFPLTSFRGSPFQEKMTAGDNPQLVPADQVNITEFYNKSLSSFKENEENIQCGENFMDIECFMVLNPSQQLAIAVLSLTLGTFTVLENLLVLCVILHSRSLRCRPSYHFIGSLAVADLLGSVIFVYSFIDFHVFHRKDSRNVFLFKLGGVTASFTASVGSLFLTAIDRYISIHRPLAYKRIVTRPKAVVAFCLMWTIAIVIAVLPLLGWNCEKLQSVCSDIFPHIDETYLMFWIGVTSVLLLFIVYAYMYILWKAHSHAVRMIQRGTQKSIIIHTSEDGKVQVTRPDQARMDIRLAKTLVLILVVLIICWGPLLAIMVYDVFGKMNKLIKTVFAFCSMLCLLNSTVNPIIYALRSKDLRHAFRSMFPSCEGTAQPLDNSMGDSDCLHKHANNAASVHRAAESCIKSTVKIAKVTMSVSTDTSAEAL
Field: label. Allowed values: True (IC50 < 200 nM) or False (IC50 >= 200 nM).

Data request: Identify whether the compound CC(C)OCCn1/c(=N/C(=O)c2cccc(Cl)c2Cl)cc(C(C)(C)C)n1C [compound 492] records IC50 below 200 nM.
Data returned: False

***
Data request: Identify whether the compound Cc1c(C(C)(C)C)s/c(=N\C(=O)c2ccccc2Br)n1CC1CC1 [compound 189] records IC50 below 200 nM.
Data returned: False

Data request: Identify whether the compound Cc1c(C(C)(C)C)s/c(=N\C(=O)c2cccnc2Cl)n1CC1CC1 [compound 301] records IC50 below 200 nM.
Data returned: True

Data request: Identify whether the compound CCOCCn1/c(=N/C(=O)c2cccc(C)c2Br)cc(C(C)(C)C)n1C [compound 487] records IC50 below 200 nM.
Data returned: False

###

Target: human CB2 receptor (Homo sapiens, UniProt P34972)
Construct: expressed in transfected cells
Sequence (P34972 whole entry): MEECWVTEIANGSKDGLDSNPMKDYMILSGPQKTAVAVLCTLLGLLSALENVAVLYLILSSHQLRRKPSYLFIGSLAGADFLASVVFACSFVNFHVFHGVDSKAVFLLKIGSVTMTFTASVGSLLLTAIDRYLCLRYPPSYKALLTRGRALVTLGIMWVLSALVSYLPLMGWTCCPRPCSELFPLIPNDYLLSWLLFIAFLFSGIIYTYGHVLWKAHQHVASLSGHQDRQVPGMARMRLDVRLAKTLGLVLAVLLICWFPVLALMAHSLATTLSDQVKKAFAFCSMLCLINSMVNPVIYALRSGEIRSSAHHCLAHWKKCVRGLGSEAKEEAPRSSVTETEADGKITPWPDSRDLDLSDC
Assay: Human CB2 receptor binding inhibition test ([3H]CP-55,940, CHO membrane fractions)
Settings: [3H]CP-55,940, membrane fractions of CHO cells stably expressing human CB2 receptor, 25° C., 2 hours; read-out: CB2 IC50 (Inhibition of binding to human CB2 receptor)
pIC50: −log10 of the molar value.
Rule: Condition met for pIC50 not less than 9, Condition not met for anything less.

Reference set, count: 4
Data request: Record Cc1c(C(C)(C)C)s/c(=N\C(=O)c2c(Cl)ccc3cc(Cl)cnc23)n1CC1CC1 ; criterion: pIC50 no lower than 9. Met?
Data returned: Condition not met

Data request: Record COCCn1c(C)c(C(C)(C)C)s/c1=N\C(=O)c1cc(F)ccc1C ; criterion: pIC50 no lower than 9. Met?
Data returned: Condition not met

Data request: Record Cc1cccnc1C(=O)/N=c1\sc(C(C)(C)C)c(C)n1CC1CC1 ; criterion: pIC50 no lower than 9. Met?
Data returned: Condition not met

Data request: Record Cc1c(F)cccc1C(=O)/N=c1\sc(C(C)(C)C)c(C)n1CC1CC1 ; criterion: pIC50 no lower than 9. Met?
Data returned: Condition not met

We next turn to a different compound, shown below.
Data request: Record CCOCCn1c(C)c(C(C)C)s/c1=N\C(=O)c1cccc(C(F)(F)F)c1F ; criterion: pIC50 no lower than 9. Met?
Data returned: Condition met

###

molecules and their reported melting point

Below are worked cases with known answers.
Data request: # melting point lookup, item COc1cc(C(=O)/N=c2\sc(C(C)(C)C)c(C)n2CC2CC2)c(OC)nn1
Data returned: 124 to 126 °C

Data request: # melting point lookup, item Cc1s/c(=N\C(=O)c2cccc(Cl)c2F)n(CC2CC2)c1C [compound 79]
Data returned: 109 to 111 °C

Data request: # melting point lookup, item COc1ccc(Cl)cc1C(=O)/N=c1\sc(C)c(C)n1CC1CC1 [compound 97]
Data returned: 121 to 123 °C

Data request: # melting point lookup, item Cn1c(C(C)(C)C)c/c(=N\C(=O)c2cccc(Cl)c2Cl)n1CC1CC1
Data returned: 158 to 159 °C

Data request: # melting point lookup, item Cc1ccc(C(=O)/N=c2\sc(C(C)(C)C)c(C)n2CC2CC2)c(F)c1F [compound 287]
Data returned: 122 to 124 °C

***
Data request: # melting point lookup, item COCCn1c(C)c(C(C)(C)C)s/c1=N\C(=O)C(F)(F)C(F)(F)C(F)(F)F [compound 338]
Data returned: 69 to 71 °C

Data request: # melting point lookup, item Cc1c(C(C)C)s/c(=N\C(=O)c2cccc(C(F)(F)F)c2F)n1C
Data returned: 89 to 91 °C

Data request: # melting point lookup, item COc1ccc(C(=O)/N=c2\sc(C(C)(C)C)c(C)n2C)c(OC)c1
Data returned: 138 to 140 °C

Data request: # melting point lookup, item CCOCCn1c(C)c(C)s/c1=N\C(=O)c1cccc(C(F)(F)F)c1F [compound 107]
Data returned: 147 to 148 °C

###

Target: human CB2 receptor (Homo sapiens)
Construct: expressed in transfected cells
Experiment: Human CB2 receptor binding inhibition test ([3H]CP-55,940, CHO membrane fractions)
Details: [3H]CP-55,940, membrane fractions of CHO cells stably expressing human CB2 receptor, 25° C., 2 hours; read-out: CB2 IC50 (Inhibition of binding to human CB2 receptor)
Experimental: Human CB2 Receptor Binding Inhibition Test […] After the filtrate was washed with an assay buffer containing 0.1% bovine serum albumin, the radioactivity on the glass filter was measured by a liquid scintillation counter. Nonspecific binding was measured in the presence of 2.0 μM CP-55,940 (manufactured by Tocris). […]
pIC50: −log10 of the molar value.
Rule: Y for pIC50 not less than 8, N for anything less.

Reference set, count: 3
Data request: Record Cc1ccc(F)cc1C(=O)/N=c1\sc(C(C)(C)C)c(C)n1CC1CC1 [compound 241] ; criterion: pIC50 no lower than 8. Met?
Data returned: Y

Data request: Record Cn1c(C(C)(C)C)c/c(=N\C(=O)c2cccc(C(F)(F)F)c2F)n1CC1CCCC1 [compound 485] ; criterion: pIC50 no lower than 8. Met?
Data returned: Y

Data request: Record Cc1c(C(C)(C)C)s/c(=N\C(=O)c2ccccc2Br)n1CC1CC1 [compound 189] ; criterion: pIC50 no lower than 8. Met?
Data returned: Y

We next turn to a different molecule, shown below.
Data request: Record Cc1c(C(C)(C)C)s/c(=N\C(=O)c2ccccc2Cl)n1C [compound 119] ; criterion: pIC50 no lower than 8. Met?
Data returned: N

###

compounds and their reported melting point

Below are worked cases with known answers.
Data request: # melting point lookup, item Cc1c(C(C)(C)C)s/c(=N\C(=O)c2cc(Cl)cnc2Cl)n1CC1CC1
Data returned: 113 to 134 °C

Data request: # melting point lookup, item Cc1s/c(=N\C(=O)c2cc(F)ccc2C(F)(F)F)n(CC2CC2)c1C
Data returned: 131 to 133 °C

Data request: # melting point lookup, item Cc1c(C(C)(C)C)s/c(=N\C(=O)C2=C(NCCO)C=CC(C(F)(F)F)C2)n1CC1CC1 (stereo not drawn)
Data returned: 131 to 133 °C

Data request: # melting point lookup, item Cc1c(C(C)(C)C)s/c(=N\C(=O)C2C[C@H]2c2ccccc2)n1CC1CC1 (mixture of isomers)
Data returned: 110 to 112 °C

Data request: # melting point lookup, item Cc1c(C(C)(C)C)s/c(=N\C(=O)c2cccnc2OC(C)C)n1CC1CC1
Data returned: 151 to 153 °C

Data request: # melting point lookup, item Cc1c(C(C)(C)C)s/c(=N\C(=O)c2cccc(N(C)C)c2)n1CC1CC1
Data returned: 128 to 130 °C

Data request: # melting point lookup, item Cc1ccc/c(=N\C(=O)c2cccc(C(F)(F)F)c2F)n1CC1CC1
Data returned: 96 to 98 °C

Data request: # melting point lookup, item Cc1c(C(C)(C)C)s/c(=N\C(=O)c2cc(C(F)(F)F)ccc2N(C)C)n1CC1CC1
Data returned: 126 to 128 °C

Data request: # melting point lookup, item Cc1c(C(C)(C)C)s/c(=N\C(=O)c2cc(C(F)(F)F)ccc2F)n1CC1CC1
Data returned: 113 to 115 °C

Data request: # melting point lookup, item Cc1s/c(=N\C(=O)C(F)(F)C(F)(F)C(F)(F)F)n(CC2CC2)c1C
Data returned: 92 to 94 °C

***
Data request: # melting point lookup, item Cc1c(C(C)(C)C)s/c(=N\C(=O)c2ccc(F)c(C(F)(F)F)c2)n1CC1CC1
Data returned: 123 to 124 °C

Data request: # melting point lookup, item Cc1c(C(C)(C)C)s/c(=N\C(=O)c2ccccc2Cl)n1C
Data returned: 119 to 121 °C

Data request: # melting point lookup, item Cc1ccc(F)c(C(=O)/N=c2\sc(C(C)(C)C)c(C)n2C)c1F
Data returned: 140 to 142 °C

Data request: # melting point lookup, item Cc1ccc(C(F)(F)F)cc1C(=O)/N=c1\sc(C(C)(C)C)nn1CC1CC1
Data returned: 63 to 65 °C

Data request: # melting point lookup, item CC(C)(C)c1nn(CC2CC2)/c(=N/C(=O)c2cc(C(F)(F)F)ccc2F)s1
Data returned: 47 to 49 °C

Data request: # melting point lookup, item O=C(/N=c1\sc2ncccc2n1CC1CC1)c1cccc(C(F)(F)F)c1F
Data returned: 156 to 158 °C

Data request: # melting point lookup, item COCCn1c(C)c(C(C)(C)C)s/c1=N\C(=O)c1cc(Br)ccc1F
Data returned: 95 to 97 °C

Data request: # melting point lookup, item Cc1c(C(C)(C)C)s/c(=N\C(=O)c2ccccc2)n1CC1CC1
Data returned: 106 to 107 °C

###

Target: human CB2 receptor (Homo sapiens)
Construct: expressed in transfected cells
Experiment: Human CB2 receptor binding inhibition test ([3H]CP-55,940, CHO membrane fractions)
QUANTITY_MEASURED: IC50 (nM)
Respond with the bare value in nM.

Data request: # IC50 lookup, item Cn1c(C(C)(C)C)c/c(=N\C(=O)c2cccc(C(F)(F)F)c2Cl)n1CC1CC1
Data returned: 3.9
